system: SF-268 CNS; assay: NCI tumour cell line growth inhibition, 48 h; in the data active means GI50 below about 0.43 µM; inactive means the rest
Returns: one label drawn from YES (active), NO (inactive)

A selection of reference data follows.
Compound	Measured on	Assigned category
Fc1c[c-]c(-c2ccccn2)c(F)c1.[CH3-].[Pt+2].c1ccc([PH+](c2ccccc2)c2ccccn2)cc1	SF-268 CNS	NO
CCN1/C(=C/C=C/C=C/c2sc3ccccc3[n+]2CC)Sc2ccccc21	SF-268 CNS	NO
COc1ccc(-c2nn(-c3ccc(NC(=O)Nc4ccc(Cl)c(Cl)c4)cc3)cc2-c2ccncc2)cc1Cl	SF-268 CNS	NO

Consider now this further compound.
Q: Record request — test call for `O=S(=O)(CC#CCCCOCC#Cc1ccccc1C#CCS(=O)(=O)c1ccccc1)c1ccccc1`
Result: NO

----------
tested on: T-47D breast; assay: NCI tumour cell line growth inhibition, 48 h
Readout name: TGI

Here are 2 compounds together with their reported answers.
Compound	TGI
CCCCC1C(=O)N(c2ccc(S(=O)(=O)Nc3ccccn3)cc2)N(c2ccc(O)c(C(=O)O)c2)C1=O (stereo not drawn)	> 100 µM
Nc1ccc(-c2ccc(Nc3cc(S(=O)(=O)O)c(N)c4c3C(=O)c3ccccc3C4=O)cc2)c(S(=O)(=O)O)c1	> 100 µM

// moving on: another record for TGI
Q: Report measured TGI; entry is `CCOC(=O)c1c(C)noc1/N=N/N(CCO)CCO`
Result: 39.7 µM

----------
tested on: NCI-H226 lung; assay: NCI tumour cell line growth inhibition, 48 h
This section presents molecules with their documented GI50 values.

Molecule	GI50
CCN1/C(=C/C=C/C=C/c2sc3ccccc3[n+]2CC)Sc2ccccc21	0.344 µM
COc1ccccc1-c1ccc2nc(NC(=O)Nc3cc(C(F)(F)F)cc(C(F)(F)F)c3)sc2c1	2.16 µM
O=C(CCc1ccco1)NC1CCN(CC2(c3ccc(Cl)cc3)CCC2)CC1	20.8 µM
CC(N)(Cc1c[nH]c2ccccc12)C(=O)O (stereo not given)	> 2500 µM

Q: Provide one value: measured GI50 of `COc1ccc2c(c1)CC[C@@H]1[C@@H]2CC[C@]2(C)c3[nH]ncc3C[C@@H]12`
Result: 16.6 µM

----------
system: NCI-H460 lung
Can you answer with just one of these options? yes for active, no for inactive

Previously resolved entries follow.
Molecule	Assigned category
COc1nc2c(cc1S(=O)(=O)c1ccccc1)CCc1c-2cnn1Cc1ccccc1	no
C=CC(=O)NCCOc1cccc(Nc2cc(NCCCNC(=O)C3CCC3)c(Br)cn2)c1	no

Q: Answer briefly: the call reported for `CC(C)(C)CC(C)(C)N(CSc1ccc(Cl)cc1)CSc1ccc(Cl)cc1` in this assay.
Result: no

Q: What did the test return for `COc1ccc2c(c1)C(=O)c1c-2c(OCCN(C)C)nc2cc(OC)ccc12` ?
Result: yes

Q: Which outcome was assigned to `COc1cc(CNc2nc3cc(N)cc(N)c3nc2-c2ccccc2)cc(OC)c1OC` in this test?
Result: no

Q: Recorded test call requested for `C=C(C)[C@@H]1CC[C@]2(C(=O)Nc3ccccn3)CC[C@]3(C)[C@H](CC[C@@H]4[C@@]5(C)CCCNC(C)(C)[C@@H]5CC[C@]43C)[C@@H]12`
Result: no

Q: Hey, what did the test say about `COc1cc[c]([Sb]([Br])([CH]=C(C)C)([CH]=C(C)C)[CH]=C(C)C)cc1` ?
Result: no

Q: Outcome logged for COc1ccc(C2=CC(c3ccc(Oc4ccnc5cc(Cl)ccc45)c(OC)c3)c3c(nc(OC)[nH]c3=O)N2)cc1 (stereo not drawn) in this assay:
Result: no

Q: Given C=CC[N+]1(CCO)CCN=C1CCCCCCCCCCCCC (stereo not drawn) , state the outcome it received in this test.
Result: no

Q: Identify the outcome logged in this assay for the molecule shown: `COc1ccc(N2CCN(CN3CCN(c4ccc(OC)cc4)C3)C2)cc1`
Result: no

Q: What did the test return for `CSC1=Nc2c(c(C)c(-c3ccccc3)n2CCCCl)C2=NC(=O)CN12` ?
Result: no

Q: // param item: C[n+]1c2cc(N)ccc2cc2ccc(N)cc21 (tested in a mixture with another compound) ; yields the recorded call
Result: yes

Q: Per the records of this test, what outcome belongs to `CCc1nc(-n2c(CC)nc3ccccc3c2=O)nc(N)c1-c1ccc(Cl)cc1` ?
Result: no
